Test: chemical genetic growth profiling, strain panel (AID 1159580);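 also: tested at 20 µM; growth read once vehicle control cultures reached saturation at 30 °C; 1 = growth at the plate median or of vehicle wells; lower values mean less growth of the strain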
Conditions: S. cerevisiae deletion strains, growth OD, locus YLR262C, strain YPT6 (second series), stronger effect = lower value
Among all 5,500 compounds or so, about 2,000 (36%) were called active. About 18% were inconclusive and are not listed. The list shows a part of the results.
Observed Property: normalized growth
# print the numeric value only

[Q] Form field: reported normalized growth of `O=C1c2c(O)cccc2Cc2cccc(O)c21`
[A] 0.862

[Q] I have this compound here, `COc1cc(N)c(Cl)cc1C(=O)NC1CCN(Cc2ccccc2)CC1` , and I need its recorded normalized growth.
[A] 1.01

[Q] Query: normalized growth; subject: OC(CCN1CCCC1)(c1ccccc1)C1CCCCC1 (stereo unspecified)
[A] 0.998

[Q] Fill in: normalized growth of `COc1ccc2c3c([nH]c2c1)C(C)=NCC3` is ___
[A] 0.983

[Q] Give its normalized growth value. Item: OC(CCN1CCCCC1)(c1ccccc1)C1CC2C=CC1C2 (stereo unspecified)
[A] 0.984

[Q] Which normalized growth is listed for CCOC(=O)OC(C)OC(=O)C1N2C(=O)C(NC(=O)[C@H](N)c3ccccc3)C2SC1(C)C (stereo partly specified) ?
[A] 0.982
